molecular target: Rho-associated protein kinase 1 (Homo sapiens) (UniProt Q13464); details: at 0.1 µM;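 also: values are mean percent inhibition of ROCK1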
Sequence (Q13464 2-1354 limits assumed): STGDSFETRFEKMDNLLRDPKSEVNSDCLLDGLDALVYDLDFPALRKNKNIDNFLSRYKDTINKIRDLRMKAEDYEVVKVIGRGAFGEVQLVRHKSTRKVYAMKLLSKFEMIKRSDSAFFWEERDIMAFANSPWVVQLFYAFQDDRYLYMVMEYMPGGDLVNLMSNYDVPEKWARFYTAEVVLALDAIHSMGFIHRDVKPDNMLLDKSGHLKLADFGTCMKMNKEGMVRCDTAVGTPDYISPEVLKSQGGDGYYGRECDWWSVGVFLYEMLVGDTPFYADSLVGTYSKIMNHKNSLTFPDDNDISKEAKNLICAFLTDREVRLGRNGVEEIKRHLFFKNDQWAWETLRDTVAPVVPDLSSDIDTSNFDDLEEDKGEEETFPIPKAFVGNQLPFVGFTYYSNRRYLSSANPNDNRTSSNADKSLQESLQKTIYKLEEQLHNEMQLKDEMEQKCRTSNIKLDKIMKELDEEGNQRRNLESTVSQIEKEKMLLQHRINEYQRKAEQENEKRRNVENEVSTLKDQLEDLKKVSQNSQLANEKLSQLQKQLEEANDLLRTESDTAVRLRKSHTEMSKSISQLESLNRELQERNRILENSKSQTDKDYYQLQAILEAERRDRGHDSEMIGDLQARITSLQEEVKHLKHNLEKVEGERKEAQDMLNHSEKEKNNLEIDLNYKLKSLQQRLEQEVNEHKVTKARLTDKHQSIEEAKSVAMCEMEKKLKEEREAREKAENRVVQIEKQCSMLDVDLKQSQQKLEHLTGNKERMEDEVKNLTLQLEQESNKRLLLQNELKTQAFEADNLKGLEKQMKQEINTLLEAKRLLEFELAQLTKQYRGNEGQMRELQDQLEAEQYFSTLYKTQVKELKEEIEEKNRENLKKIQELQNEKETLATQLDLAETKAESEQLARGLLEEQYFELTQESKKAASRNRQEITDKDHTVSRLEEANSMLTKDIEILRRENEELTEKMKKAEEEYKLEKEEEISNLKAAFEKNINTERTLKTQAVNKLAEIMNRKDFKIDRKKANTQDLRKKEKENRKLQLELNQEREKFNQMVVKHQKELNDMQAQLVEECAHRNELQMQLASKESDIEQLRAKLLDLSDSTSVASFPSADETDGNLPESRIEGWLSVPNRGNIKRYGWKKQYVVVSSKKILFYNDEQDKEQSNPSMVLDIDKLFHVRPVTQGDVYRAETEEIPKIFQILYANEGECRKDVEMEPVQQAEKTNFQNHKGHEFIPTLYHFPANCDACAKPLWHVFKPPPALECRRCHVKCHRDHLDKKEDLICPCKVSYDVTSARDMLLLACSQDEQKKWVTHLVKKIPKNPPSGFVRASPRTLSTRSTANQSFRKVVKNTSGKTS
Binary call on inhibition: true from 0.7% upward, false beneath that.

C[C@@H](Oc1cc(-n2cnc3ccc(OC[C@@H](O)CO)cc32)sc1C(N)=O)c1ccccc1Cl	false
Nc1ccc(C#Cc2cncnc2Nc2ccc(OCc3cccc(F)c3)c(Cl)c2)cc1	true
COC(=O)Nc1nc2cc(Oc3ccc(NC(=O)Nc4cccc(Br)c4)cc3)ccc2[nH]1	true
COc1cccc(-n2ncc3c(N/N=C/c4ccc(C)cc4)ncnc32)c1	true
Cc1cc(O)cc(C)c1/C=C/c1cncc(C(=O)N(C)C)c1	false
Cc1cc(-c2ccccn2)cc(C)c1/C=C/c1cncc(-c2nn[nH]n2)c1	true
